Ref: patent US20140341881A1

- assay_system: thrombin; note: test concentration or dose not given here
- assay_protocol: cell-based or functional assay
quantity: % Inhibition (%)
Entry rule: numbers only, all in %.

# input Which value of % Inhibition has been reported for AATG9 (other, human, mature; also called rAATG9) HHHHHHEDPQGDAAQKTDTSHHDQDHPTFNKITPNLAEFAFSLYRQLAHQSNSTNIFFSPVSIATAFAMLSLGTKADTHDEILEGLNFNLTEIPEAQIHEGFQELLRTLNQPDSQLQLTTGNGLFLSEGLKLVDKFLEDVKKLYHSEAFTVNFGDTEEAKKQINDYVEKGTQGKIVDLVKELDRDTVFALVNYIFFKGKWERPFEVKDTEEEDFHVDQVTTVKVPMMKRLGMFNIQHCKKLSSWVLLMKYLGNATAIFFLPDEGKLQHLENELTHDIITKFLENEDRRSASLHLPKLSITGTYDLKSVLGQLGITKVFSNGADLSGVTEEAPLKLSKAVHKAVLTIDEKGTEAAGAMFLETVDYAIPPEVKFNKPFVFLMIEQNTKSPLFMGKVVNPTQK in the records?
# output 0

# input Which value of % Inhibition has been reported for AATC11 (other, human, mature) HHHHHHEDPQGDAAQKTDTSHHDQDHPTFNKITPNLAEFAFSLYRQLAHQSNSTNIFFSPVSIATAFAMLSLGTKADTHDEILEGLNFNLTEIPEAQIHEGFQELLRTLNQPDSQLQLTTGNGLFLSEGLKLVDKFLEDVKKLYHSEAFTVNFGDTEEAKKQINDYVEKGTQGKIVDLVKELDRDTVFALVNYIFFKGKWERPFEVKDTEEEDFHVDQVTTVKVPMMKRLGMFNIQHCKKLSSWVLLMKYLGNATAIFFLPDEGKLQHLENELTHDIITKFLENEDRRSASLHLPKLSITGTYDLKSVLGQLGITKVFSNGADLSGVTEEAPLKLSKAVHKAVLTIDEKGTEAAGAMFLEAIPRQTNPEVKFNKPFVFLMIEQNTKSPLFMGKVVNPTQK in the records?
# output 100

# input Which value of % Inhibition has been reported for AATE8 (other, human, mature; also called rAATE8) HHHHHHEDPQGDAAQKTDTSHHDQDHPTFNKITPNLAEFAFSLYRQLAHQSNSTNIFFSPVSIATAFAMLSLGTKADTHDEILEGLNFNLTEIPEAQIHEGFQELLRTLNQPDSQLQLTTGNGLFLSEGLKLVDKFLEDVKKLYHSEAFTVNFGDTEEAKKQINDYVEKGTQGKIVDLVKELDRDTVFALVNYIFFKGKWERPFEVKDTEEEDFHVDQVTTVKVPMMKRLGMFNIQHCKKLSSWVLLMKYLGNATAIFFLPDEGKLQHLENELTHDIITKFLENEDRRSASLHLPKLSITGTYDLKSVLGQLGITKVFSNGADLSGVTEEAPLKLSKAVHKAVLTIDEKGTEAAGAMFLEALQRAIPPEVKFNKPFVFLMIEQNTKSPLFMGKVVNPTQK in the records?
# output 0
